Source listed as the nanobody polyreactivity screen of Harvey et al. (2022).

- Run Description: yeast display, Sf9 membrane polyspecificity reagent, FACS + sequencing; frameworks hold sequencing errors

{"columns": ["Sequence Chain", "polyreactivity (PSR sort gate)"],
 "data": [
  ["QVQLVEAGRGLVHAGGSLRLSCDPSGLTFSRYAMGWYRPAPGKESELVPAISSRGGTTYYADSVKGRFTISRDYAKNTVYLQMYSMKPEDTAVYYCAAGYITWGSGNWVVTPYDVWGQGTQVTVSS", "high polyreactivity"],
  ["QVQLVESGGGLVQAGGSLRLSCAASGFIFPRYAMGWYRQAPGKERELVADISYSGGSTYYADSVKGRFTISRDNAKNTVYLQMNSLKPEDTAVYRPYAFGYWGQGTQVTVSS", "high polyreactivity"],
  ["QVQLGESGGGLVQAGGSLRLSCAASGSIFGGNAMGWYRQAPGKERELVAAISTSGSTTYYADSVKGRFTISRDNAKNTVYLQMNSLKPEDTAVYYCARRGGVRGYYGGRRSKMDYWGQGTQVTVSS", "low polyreactivity"],
  ["QVQLVESGGGLVQAGGSLRLSCAASGSIFAPNAMGWYRHAPGKERELVAAISRSGGRTYYADSVKGRFTISRDNAKNTVYLQMNSLKPEDTAVYYCAADYKHQRTYGSWGQGTQVTVSS", "high polyreactivity"],
  ["QVQLVESGGGLVQAGGSLRLSCAASGSIFFNYAMGWYRQAPGKERELVAAITRSGGSTYYADSVKGRFTISRDNAKNTVYLQMNSLKPEDTAVYYCAARYPFGSLGRYGYWGQGTQVTVSS", "high polyreactivity"],
  ["QVQLVESGGGLVQAGGSLRLSCAASGIIFRSYAMGWYRQAPGKERELVAGISLSGGSTYYADSVKGRFTISRDNAKNTVYLQMNSLKPEDTAVYYCATRNHYFRALRYGYWGQGTQVTVSS", "high polyreactivity"],
  ["QVQLVESGGGLVQAGGSLRLSCAAYGSLFDSNAMGWYRQAPRKERELVAAITVSGTSTYYADSVNGRFTISRDNEKNTVYLQMNSLKPEYTEVYYCAAAQEYLTDHDYWGQGTQVTVSS", "low polyreactivity"],
  ["QVQLVESGGGLVQAGGSLRLSCAASGITFYYYAMGWYRQAPGKERELVAAISFRGGSTYYADSVKGRFTISRDNAKNTVYLQMNSLKPEDTAVYYCAKAWSYTDPPRGDYWGQGTQVTVSS", "high polyreactivity"],
  ["QVQLVESGGGLVQAGGSLRLSCAASGFTFSPNAMGWDRQAPGKERELVATISWNGGRTHYADSVKGRFTISRDNANKTVYLQMNSLKPEDTAVYYCNVVRATGRYYYWGQGTQVTVSS", "high polyreactivity"],
  ["QVQLVESGGGLVQAGGSLRLSCAASGNTFYGYSMGWYRQAPGKERELVASITLSGDSTYYADSVKGRFTISRDNAKNTVYLQMNSLKPEDTAVYYCARRSRESYEYDYWGQGTQVTVSS", "low polyreactivity"],
  ["QVQLQESGGRLVQAGVSLRLSCAASGSIYDDTYMGWYRQAPGKERELVATIDSGSTTNYADSVKGRITISRDNAKNTVYLQMNSLKPEDTAVYYCAAADSHIDYFDYWGQGTQVTVSS", "low polyreactivity"]
]}

----------
- Run Description: yeast display, Sf9 membrane polyspecificity reagent, FACS + sequencing; frameworks hold sequencing errors
Measured Parameter: polyreactivity (PSR sort gate)

{"columns": ["Sequence Chain", "Result"],
 "data": [
  ["QVQLVESAGGLVQAGGSLRLSCAASAFTFRWYDMGWYRQAPGKERELVAAIDASDGSTYYSDSVKGSFTISRDNPKNTVYLPMNSLKPEDTAVYYCATRLRGGGKGYYYWGQGTQVTVSS", "high polyreactivity"],
  ["QVQLVESGGGLVQAGGSLRLSCAASGRIIIGYVMGWYRQAPGKERELVATISYSGGSTYADSVKGRFTISRDNAKNTVYLQMNSLKPEDTAVYYCAARPYYRYYRYPYGYWGQGTQVTVSS", "high polyreactivity"]
]}
